The compounds listed here are annotated with their log10 IC50.
Test system: PRMT5-dependent Symmetric Di-methyl Arginine signal in HCT116 homozygous MTAP Knockout cells
Assay: SYM11 In-Cell Western in HCT116 homozygous MTAP knockout cells
Assay type: cell-based
Details: 4 days of treatment, SYM11/DRAQ5 ratio as percent of DMSO control, read-out: In-cell-Western (SYM11) IC50 (nM) HCT116 MTAP_KO
quantity: log10 IC50 (log10 of the value in nM)

Cc1cc(-c2cnn(C)c2-c2c(F)c(Cl)cc(OC3CC3)c2C#N)cc2c(CN)n[nH]c(=O)c12 (single isomer, unassigned) [Example 16-46] ... 0.78
Cc1cc(-c2cnn(C)c2-c2c(F)c(Cl)cc(OC3CC3)c2C#N)cc2c(CN)n[nH]c(=O)c12 (single isomer, unassigned) [Example 16-45] ... 2.45
Cn1ncc(-c2cc(Cl)c3c(=O)[nH]nc(CN)c3c2)c1-c1c(F)ccc(OC2CC2)c1C#N (atropisomer, axis not shown; (M)) [Example 16-56] ... 0.95
Cc1c(F)c(-c2c(-c3ccc4c(=O)[nH]nc(CN)c4c3)cnn2C)c(C#N)c2ccccc12 (single isomer, unassigned) [Example 16-14] ... 0.48
Cc1cc(OC2CC2)c(C#N)c(-c2c(-c3cc(C)c4c(=O)[nH]nc(CN)c4c3)cnn2C)c1F (single isomer, unassigned) [Example 16-43] ... 2.82
Cn1ncc(-c2ccc3c(=O)[nH]nc(CN)c3c2)c1-c1c(F)ccc(OC2CC2)c1C#N (single isomer, unassigned) [Example 16-22] ... 0.60
Cc1c(F)c(-c2c(-c3ccc4c(=O)[nH]nc(CN)c4c3)cnn2C)c(C#N)c2ccccc12 (single isomer, unassigned) [Example 16-13] ... 2.37
Cn1ncc(-c2ccc3c(=O)[nH]nc(CN)c3c2)c1-c1c(F)cc2ccccc2c1C#N (single isomer, unassigned) [Example 16-2] ... 1.86
Cn1ncc(-c2cc(Cl)c3c(=O)[nH]nc(CN)c3c2)c1-c1c(C#N)cc2ccccc2c1Cl (single isomer, unassigned) [Example 16-64] ... 1.11
Cn1ncc(-c2ccc3c(=O)[nH]nc(CN)c3c2)c1-c1c(F)cc2ccccc2c1C#N [Example 4-203] ... 0.30
Cc1c(F)c(-c2c(-c3cc(C)c4c(=O)[nH]nc(CN)c4c3)cnn2C)c(C#N)c2ccccc12 (single isomer, unassigned) [Example 16-41] ... 2.39
Cc1cc(-c2cnn(C)c2-c2c(F)cc3ccccc3c2C#N)cc2c(CN)n[nH]c(=O)c12 (single isomer, unassigned) [Example 16-16] ... 0.78
